meta.source: ChEMBL document CHEMBL4689842

# Population Apoptotic (%) listing for each entry below
System: Fibroblast
Assay: Multiplex assay against human fibroblast
Format: toxicity, cell-based
Conditions: 24 h, 1 µM, compound concentration 1 uM, replicate 1
Readout type: Population Apoptotic (%)

Compound | Readout type | Readout unit | Reported
CNC(=O)Nc1ccc(-c2nc(N3CC4CCC(C3)O4)c3cnn(C4CCC5(CC4)OCCO5)c3n2)cc1 | Population Apoptotic (%) | % | 38
CCc1ccc(OCc2ccccc2C(=O)Nc2ccc3nc(C)cc(N)c3c2)cc1.Cl | Population Apoptotic (%) | % | 79
COc1cc(Nc2nccc(-c3cnn4nc(OC)ccc34)n2)cc(C(F)(F)F)c1 | Population Apoptotic (%) | % | 75
CNC(=O)Nc1ccc2c(c1)[C@@]1(CC2)OC(=O)N(CC(=O)N(Cc2ccc(F)cc2)[C@@H](C)C(F)(F)F)C1=O [A-486] | Population Apoptotic (%) | % | 56
CC(C)Oc1ccccc1C(=O)Nc1ccccc1C(=O)Nc1cccc(S(=O)(=O)C(F)(F)F)c1 | Population Apoptotic (%) | % | 61
C=CC(=O)Nc1ccc2[nH]c(=O)n(C3CCN(Cc4ccc(-c5nc6cc[nH]c(=O)c6cc5-c5ccccc5)cc4)CC3)c2c1 [Borussertib] | Population Apoptotic (%) | % | 66
C=CC(=O)Nc1cccc(Oc2nc(Nc3ccc(N4CCN(C)CC4)cc3OC)ncc2Cl)c1 | Population Apoptotic (%) | % | 61
CCCSc1nc(N[C@@H]2C[C@H]2c2ccc(F)c(F)c2)c2nnn([C@@H]3C[C@H](OCCO)[C@@H](O)[C@H]3O)c2n1 [TICAGRELOR] | Population Apoptotic (%) | % | 43
